Here, each record is paired with measured Kd data.
- tgt: T1, EsCas13d, nuclease-dead (Eubacterium siraeum, UniProt B0MS50, R295A;H300A;R849A;H854A)
- T1 sequence: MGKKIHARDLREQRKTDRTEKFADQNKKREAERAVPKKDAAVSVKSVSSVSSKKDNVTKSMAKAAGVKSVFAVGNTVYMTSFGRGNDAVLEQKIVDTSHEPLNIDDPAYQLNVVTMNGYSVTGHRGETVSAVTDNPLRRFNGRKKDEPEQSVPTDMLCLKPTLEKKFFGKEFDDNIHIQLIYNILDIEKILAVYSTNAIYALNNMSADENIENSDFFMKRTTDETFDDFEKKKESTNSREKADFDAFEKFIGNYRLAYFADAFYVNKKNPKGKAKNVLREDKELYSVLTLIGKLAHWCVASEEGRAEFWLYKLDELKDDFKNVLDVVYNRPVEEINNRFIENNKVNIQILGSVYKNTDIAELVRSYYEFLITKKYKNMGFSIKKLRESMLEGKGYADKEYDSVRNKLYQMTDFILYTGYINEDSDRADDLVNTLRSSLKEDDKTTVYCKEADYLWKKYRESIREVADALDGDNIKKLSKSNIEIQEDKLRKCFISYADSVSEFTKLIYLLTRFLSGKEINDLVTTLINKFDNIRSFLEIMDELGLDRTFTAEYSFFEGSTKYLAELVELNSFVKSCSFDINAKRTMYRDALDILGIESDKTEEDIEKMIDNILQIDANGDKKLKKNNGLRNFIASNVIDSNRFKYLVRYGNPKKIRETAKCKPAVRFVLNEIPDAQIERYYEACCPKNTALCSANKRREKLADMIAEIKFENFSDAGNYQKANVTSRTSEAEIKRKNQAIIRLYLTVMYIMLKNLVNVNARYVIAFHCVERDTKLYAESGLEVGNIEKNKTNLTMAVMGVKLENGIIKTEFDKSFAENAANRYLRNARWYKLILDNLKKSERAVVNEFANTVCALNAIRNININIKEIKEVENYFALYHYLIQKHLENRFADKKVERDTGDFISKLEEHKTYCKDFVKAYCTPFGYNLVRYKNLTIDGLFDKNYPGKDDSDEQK
- experiment: crRNA (strand 1, pre-loaded); Mg2+; 40 mM Tris-HCl pH 7.5, 150 mM NaCl, 6 mM MgCl2, 1 mM DTT, 0.1% Tween-20, 0.2 mg/ml BSA; 25 C; 10 min per concentration, then washed
- applied.conditions: tags: His6-TwinStrep-SUMO cleaved; N-terminal SNAP kept (SNAP-Surface 488); label: 3' end held by stalled T7 RNA polymerase
measured.property: Kd (nM)

>>> recorded_value("target 1 MT 5'PFS CUU 3'PFS UUG (mixed) RNA 1: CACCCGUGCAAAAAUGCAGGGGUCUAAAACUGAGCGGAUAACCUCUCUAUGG RNA 2: GGGAAUGGAUCCACAUCUACGAAUUCCUUCCAUAGAGAGGUUAUCCGCUCAUUGAGAUCGGAAGAGCACACGU")
29.5
>>> recorded_value("target 2 MT 5'PFS ACG 3'PFS ACG (mixed) RNA 1: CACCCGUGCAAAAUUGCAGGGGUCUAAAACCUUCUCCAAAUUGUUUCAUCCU RNA 2: GGGAAUGGAUCCACAUCUACGAAUUCACGAGGAUGAAACAAUUUGGAGAAGACGAGAUCGGAAGAGCACACGU")
15
>>> recorded_value("target 1 insG 3' of 16,insG 3' of 10 (mixed) RNA 1: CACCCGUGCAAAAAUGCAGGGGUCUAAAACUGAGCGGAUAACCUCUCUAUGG RNA 2: GGGAAUGGAUCCACAUCUACGAAUUCGUACCAUAGAGGAGGUUGAUCCGCUCACCGAGAUCGGAAGAGCACACGU")
31.2
>>> recorded_value("target 1 insG 3' of 8,insU 3' of 7 (mixed) RNA 1: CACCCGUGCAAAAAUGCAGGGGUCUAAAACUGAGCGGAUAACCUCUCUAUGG RNA 2: GGGAAUGGAUCCACAUCUACGAAUUCGUACCAUAGAGAGGUUAUGCUCGCUCACCGAGAUCGGAAGAGCACACGU")
14.1
>>> recorded_value("target 1 complement block 7-11 (mixed) RNA 1: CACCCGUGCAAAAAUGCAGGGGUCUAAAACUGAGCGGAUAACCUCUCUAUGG RNA 2: GGGAAUGGAUCCACAUCUACGAAUUCGUACCAUAGAGAGGAAUAGCGCUCACCGAGAUCGGAAGAGCACACGU")
13.3
>>> recorded_value("target 1 MT 5'PFS AAC 3'PFS CGG (mixed) RNA 1: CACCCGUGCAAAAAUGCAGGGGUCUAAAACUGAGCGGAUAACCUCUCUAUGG RNA 2: GGGAAUGGAUCCACAUCUACGAAUUCAACCCAUAGAGAGGUUAUCCGCUCACGGAGAUCGGAAGAGCACACGU")
31
>>> recorded_value("target 3 complement block 4-7 (mixed) RNA 1: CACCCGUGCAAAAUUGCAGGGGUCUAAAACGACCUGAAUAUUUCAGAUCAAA RNA 2: GGGAAUGGAUCCACAUCUACGAAUUCGUUUUUGAUCUGAAAUAUAGUCGUCUGCAGAUCGGAAGAGCACACGU")
23.6
>>> recorded_value("target 1 A18C,C21A (mixed) RNA 1: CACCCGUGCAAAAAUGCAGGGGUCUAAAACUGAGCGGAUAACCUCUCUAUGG RNA 2: GGGAAUGGAUCCACAUCUACGAAUUCGUACAAUCGAGAGGUUAUCCGCUCACCGAGAUCGGAAGAGCACACGU")
88
>>> recorded_value("target 3 insC 3' of 9,insC 3' of 3 (mixed) RNA 1: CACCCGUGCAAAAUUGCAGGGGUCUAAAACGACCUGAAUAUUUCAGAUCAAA RNA 2: GGGAAUGGAUCCACAUCUACGAAUUCGUUUUUGAUCUGAAAUACUUCAGGCUCUGCAGAUCGGAAGAGCACACGU")
88
>>> recorded_value("target 1 insG 3' of 19,insU 3' of 12 (mixed) RNA 1: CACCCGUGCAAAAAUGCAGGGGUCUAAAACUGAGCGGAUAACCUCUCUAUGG RNA 2: GGGAAUGGAUCCACAUCUACGAAUUCGUACCAUGAGAGAGGUUUAUCCGCUCACCGAGAUCGGAAGAGCACACGU")
48
>>> recorded_value("target 3 insG 3' of 5,insU 3' of 4 (mixed) RNA 1: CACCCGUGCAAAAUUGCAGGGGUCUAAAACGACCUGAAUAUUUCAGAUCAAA RNA 2: GGGAAUGGAUCCACAUCUACGAAUUCGUUUUUGAUCUGAAAUAUUCAGGUGUCUGCAGAUCGGAAGAGCACACGU")
20.4
>>> recorded_value("target 1 U10C,A16G (mixed) RNA 1: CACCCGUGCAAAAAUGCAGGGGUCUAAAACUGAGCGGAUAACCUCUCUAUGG RNA 2: GGGAAUGGAUCCACAUCUACGAAUUCGUACCAUAGGGAGGUCAUCCGCUCACCGAGAUCGGAAGAGCACACGU")
62
>>> recorded_value("target 1 MT 5'PFS CCA 3'PFS UCU (mixed) RNA 1: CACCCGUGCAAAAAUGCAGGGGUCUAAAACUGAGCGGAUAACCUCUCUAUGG RNA 2: GGGAAUGGAUCCACAUCUACGAAUUCCCACCAUAGAGAGGUUAUCCGCUCAUCUAGAUCGGAAGAGCACACGU")
4.9
>>> recorded_value("target 2 MT 5'PFS GGU 3'PFS UUU (mixed) RNA 1: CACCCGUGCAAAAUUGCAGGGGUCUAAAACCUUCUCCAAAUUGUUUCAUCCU RNA 2: GGGAAUGGAUCCACAUCUACGAAUUCGGUAGGAUGAAACAAUUUGGAGAAGUUUAGAUCGGAAGAGCACACGU")
68
>>> recorded_value("target 1 C4U,G13C (mixed) RNA 1: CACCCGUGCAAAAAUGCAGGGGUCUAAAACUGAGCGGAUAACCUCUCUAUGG RNA 2: GGGAAUGGAUCCACAUCUACGAAUUCGUACCAUAGAGACGUUAUCCGUUCACCGAGAUCGGAAGAGCACACGU")
50
